condition_summary: in acetone, 318.2 K
property_label: solubility (mole fraction)

O=C(O)c1ccccc1O : 0.156

* * *

condition_summary: in water, 338.2 K
property_label: solubility (mole fraction)

O=C(O)c1ccccc1O : 0.000944

* * *

condition_summary: in isopropanol, 338.2 K
property_label: solubility (mole fraction)

O=C(O)c1ccccc1O : 0.214

* * *

condition_summary: in isopropanol, 328.2 K
property_label: solubility (mole fraction)

O=C(O)c1ccccc1O : 0.195

* * *

condition_summary: in water, 328.2 K
property_label: solubility (mole fraction)

O=C(O)c1ccccc1O : 0.000699

* * *

condition_summary: in n-propanol, 338.2 K
property_label: solubility (mole fraction)

O=C(O)c1ccccc1O : 0.195
